target: TNKS2 (Homo sapiens (Human)); assay: Biochemical IC50 TNKS2; conditions: read-out: Biochemical IC50 TNKS2
Sequence (Q9H2K2 whole entry): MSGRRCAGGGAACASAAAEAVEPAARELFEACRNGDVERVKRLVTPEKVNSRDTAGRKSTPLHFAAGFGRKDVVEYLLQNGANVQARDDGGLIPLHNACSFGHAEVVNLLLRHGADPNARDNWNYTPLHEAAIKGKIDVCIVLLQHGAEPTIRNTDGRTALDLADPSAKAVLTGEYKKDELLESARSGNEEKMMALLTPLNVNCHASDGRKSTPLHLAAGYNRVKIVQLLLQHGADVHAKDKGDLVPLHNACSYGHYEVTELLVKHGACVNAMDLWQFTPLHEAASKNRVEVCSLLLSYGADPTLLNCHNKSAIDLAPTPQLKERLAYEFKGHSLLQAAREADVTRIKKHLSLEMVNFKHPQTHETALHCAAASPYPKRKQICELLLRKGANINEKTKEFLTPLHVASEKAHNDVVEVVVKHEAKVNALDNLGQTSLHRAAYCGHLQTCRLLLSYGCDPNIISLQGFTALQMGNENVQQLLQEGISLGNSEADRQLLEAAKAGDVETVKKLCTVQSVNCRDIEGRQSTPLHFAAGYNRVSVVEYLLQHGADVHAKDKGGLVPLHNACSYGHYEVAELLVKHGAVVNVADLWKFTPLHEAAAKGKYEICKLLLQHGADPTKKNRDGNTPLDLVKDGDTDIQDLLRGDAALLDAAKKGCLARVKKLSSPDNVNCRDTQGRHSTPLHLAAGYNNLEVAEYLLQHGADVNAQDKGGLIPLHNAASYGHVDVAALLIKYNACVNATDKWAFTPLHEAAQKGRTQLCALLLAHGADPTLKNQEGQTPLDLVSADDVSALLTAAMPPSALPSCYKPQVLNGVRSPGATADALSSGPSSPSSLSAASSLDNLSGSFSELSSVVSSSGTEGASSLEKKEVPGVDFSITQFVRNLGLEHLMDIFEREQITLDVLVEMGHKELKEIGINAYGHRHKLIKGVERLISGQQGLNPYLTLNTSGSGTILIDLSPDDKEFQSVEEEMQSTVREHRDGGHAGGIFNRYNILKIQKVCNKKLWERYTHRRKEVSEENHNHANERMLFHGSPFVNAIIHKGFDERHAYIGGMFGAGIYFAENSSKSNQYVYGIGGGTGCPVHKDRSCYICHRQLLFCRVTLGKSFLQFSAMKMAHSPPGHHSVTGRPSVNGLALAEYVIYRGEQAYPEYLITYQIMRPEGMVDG
Lab note - cut at 7 nM for IC50: 1.0 if strictly below, 0.0 if not.

Hi there! Is IC50 for `CCOc1ccc(-c2nnc([C@H]3C[C@H](NC(=O)c4ccc5cc(F)ccc5n4)C3)n2-c2ccccc2F)nc1` below 7 nM, do you know?
0.0

What do you get for `O=C(N[C@H]1C[C@H](c2nnc(-c3nccs3)n2-c2ccccc2Cl)C1)c1ccccc1` ?
0.0

What do you get for `CCOc1ccc(-c2nnc([C@H]3C[C@H](NC(=O)c4ccnc5cc(F)cnc45)C3)n2-c2ccncc2)nc1` ?
1.0

What do you get for `O=C(N[C@H]1C[C@H](c2nnc(-c3ccncn3)n2-c2ccccc2Cl)C1)c1cccc(F)c1` ?
1.0

What do you get for `CCOc1ccc(-c2nnc([C@H]3C[C@H](NC(=O)c4ccnc5cc(F)cnc45)C3)n2-c2ccc(C)s2)nc1` ?
1.0

What do you get for `CCOc1ccc(-c2nnc([C@H]3C[C@H](NC(=O)c4ccc(F)cc4)C3)n2-c2ccccc2)nc1` ?
0.0
